Test system: MelJuSo cells
Experimental details: Cell viability (CellTiter-Glo ATP content) in MelJuSo cells
Format: cell-based
Conditions used: Homo sapiens, MEL-JUSO, 72 hours treatment, cell survival by CellTiter-Glo, 2% fetal bovine serum
IC50 values for the molecules below.

Please give the measured IC50 for this molecule: CCCCC1C(c2ccc(F)cc2)=NN(c2ccc(F)cc2F)C1(C)C(=O)NCCOC (centres unmarked)
0.5 to 1 µM

Please give the measured IC50 for this molecule: CCCCC1C(c2c(F)cc(F)cc2F)=NN(c2ccc(F)cc2F)C1(C)C(=O)NCC(=O)OC (centres unmarked)
0.5 to 1 µM

Please give the measured IC50 for this molecule: CCCCC1C(c2ccc(F)cc2)=NN(c2ccccc2)C1(C)C(=O)NCC1CC1 (centres unmarked)
1 to 2 µM

Please give the measured IC50 for this molecule: CCCCC1C(c2c(F)cc(F)cc2F)=NN(c2ccc(F)cc2F)C1(C)C(=O)NCCCC(C)(C)CO (centres unmarked)
0.5 to 1 µM

Please give the measured IC50 for this molecule: CCCCC1C(c2ccc(F)cc2)=NN(c2ccccc2)C1(C)C(=O)NCc1ccc(O)cc1 (centres unmarked)
1 to 2 µM

Please give the measured IC50 for this molecule: CCCCC1C(c2ccc(F)cc2)=NN(c2ccc(F)c(Cl)c2)C1(C)C(=O)NCCCCC(C)(C)O (centres unmarked)
1 to 2 µM

Please give the measured IC50 for this molecule: CNC(=O)CNC(=O)C1(C)C(c2cccs2)C(c2ccc(F)cc2)=NN1c1ccc(F)cc1F (centres unmarked)
1 to 2 µM

Please give the measured IC50 for this molecule: CCCCC1C(c2ccc(F)cc2)=NN(c2cccc(F)c2)C1(C)C(=O)NCCCOC (centres unmarked)
1 to 2 µM

Please give the measured IC50 for this molecule: CCCCC1C(c2ccc(F)cc2)=NN(c2ccc(F)cc2F)C1(C)C(=O)NCCCN(C)C (centres unmarked)
> 2 µM

Please give the measured IC50 for this molecule: CCCCC1C(c2ccc(F)cc2)=NN(c2ccccc2)C1(C)C(=O)NCc1cccc(Cl)c1 (centres unmarked)
> 2 µM

Please give the measured IC50 for this molecule: Cn1cccc1C1C(c2ccc(F)cc2)=NN(c2ccc(F)cc2F)C1(C)C(=O)NCCCC(C)(C)CO (centres unmarked)
> 2 µM

Please give the measured IC50 for this molecule: CCCCC1C(c2ccc(F)cc2)=NN(c2ccccc2)C1(C)C(=O)NCC(C)(C)N(C)C (centres unmarked)
> 2 µM

Please give the measured IC50 for this molecule: CCCCC1(C)C(c2ccc(F)cc2)=NN(c2ccc(F)cc2F)C1(C)C(=O)NCCCC(C)(C)CO (centres unmarked)
> 2 µM

Please give the measured IC50 for this molecule: CCCCC1C(c2ccc(F)cc2)=NN(c2cccc(C)c2)C1(C)C(=O)NCCOC (centres unmarked)
< 0.25 µM

Please give the measured IC50 for this molecule: CCCCC1C(c2ccc(F)cc2)=NN(c2ccc(F)cc2F)C1(C)C(=O)NCCC(=O)OC (centres unmarked)
0.5 to 1 µM

Please give the measured IC50 for this molecule: CCCCC1C(c2ccc(F)cc2)=NN(c2ccccc2)C1(C)C(=O)NCCCCCO (centres unmarked)
0.5 to 1 µM

Please give the measured IC50 for this molecule: CCCCC1C(c2ccc(F)cc2)=NN(c2ccccc2)C1(C)C(=O)N[C@@H](C)c1ccccc1 (some centres unmarked)
> 2 µM

Please give the measured IC50 for this molecule: CCCCC1C(c2ccc(F)cc2)=NN(c2ccc(F)c(OC)c2)C1(C)C(=O)NCCCOC (centres unmarked)
> 2 µM

Please give the measured IC50 for this molecule: CCCCC1C(c2ccc(F)cc2F)=NN(c2ccccc2)C1(C)C(=O)NCCOC (centres unmarked)
0.5 to 1 µM

Please give the measured IC50 for this molecule: CC1(C(=O)NCC(=O)NC2COC2)C(c2cccs2)C(c2ccc(F)cc2)=NN1c1ccc(F)cc1F (centres unmarked)
> 2 µM

Please give the measured IC50 for this molecule: CCCCC1(C)C(c2ccc(F)cc2)=NN(c2ccc(F)cc2F)C1(C)C(=O)NCCOC (centres unmarked)
> 2 µM

Please give the measured IC50 for this molecule: COC(=O)CNC(=O)C1(C)C(c2ccc(Cl)o2)C(c2ccc(F)cc2F)=NN1c1ccc(F)cc1F (centres unmarked)
< 0.25 µM

Please give the measured IC50 for this molecule: CCCCC1C(c2ccc(F)cc2)=NN(c2ccccc2)C1(C)C(=O)NCCCN(C)C (centres unmarked)
> 2 µM

Please give the measured IC50 for this molecule: CCCCC1C(c2ccc(F)cc2)=NN(c2ccccc2)C1(C)C(=O)NCC(C)(C)C (centres unmarked)
> 2 µM

Please give the measured IC50 for this molecule: CCCCC1C(c2ccc(F)cc2)=NN(c2cccc(Cl)c2)C1(C)C(=O)NCCCC(C)(C)CO (centres unmarked)
0.25 to 0.5 µM

Please give the measured IC50 for this molecule: Cc1ccc(C2C(c3ccc(F)cc3)=NN(c3ccc(F)cc3F)C2(C)C(=O)NCCCC(C)(C)CO)s1 (centres unmarked)
1 to 2 µM
